Test protocol: chemical genetic growth profiling, strain panel (AID 1159580);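 further: tested at 20 µM; growth read once vehicle control cultures reached saturation at 30 °C; 1 = growth at the plate median or of vehicle wells; lower values mean less growth of the strain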
Condition context: S. cerevisiae deletion strains, growth OD, locus YJL095W, strain BCK1
Out of some 5,500 compounds screened, about 2,000 (36%) were called active. Roughly 18% stayed inconclusive and do not appear here. No stated cut-off is given here; in the data, active means normalized growth mostly below about 0.91 (no sharp cut-off); inconclusive means no clear call, values can overlap the other calls; inactive means mostly above about 0.92. Some of the results follow.
Outcomes: true (1) for active, false (0) for inactive

Compound	Category label
CNCCCC1c2ccccc2C=Cc2ccccc21	false (0)
CC1(C)CC2C1CC[C@]1(C)CCC3C(C(=O)O)CC(=O)O[C@@]32C1 (some centres undefined)	false (0)
CC(=O)c1ccc(Cl)c(N=Cc2cc(Cl)cc(Cl)c2O)c1	true (1)
O=S(=O)(Nc1ccccc1Oc1ccccc1)c1ccc(-c2ccno2)s1	false (0)
N/C(Cc1cccc2ccccc12)=N/OC(=O)c1ccc(Cl)cc1	false (0)
CN(C)C1C(=O)C(C(N)=O)=C(O)C2(O)C(=O)C3=C(O)c4c(O)ccc(Cl)c4C(C)(O)C3CC12 (centres undefined)	false (0)
O=C1NC(O)=NC1(c1ccccc1)c1ccccc1	false (0)
CNNC	false (0)
CC(C)CCCC(C)C1CCC2C3CC[C@H]4C[C@@H](O)CC[C@]4(C)C3CC[C@]12C (some centres undefined)	false (0)
CC(=O)Oc1ccc(O)cc1	false (0)
C#CCSC1=NNC(c2ccccn2)S1 (centres undefined)	true (1)
CN(C)CCC(c1ccc(Cl)cc1)c1ccccn1 (centres undefined)	false (0)
O=C(Nc1ccc(F)cc1F)c1cc(Cl)c(-n2cccc2)c(Cl)c1	false (0)
CC(=O)O[C@@H]1CC2C(C)(C)[C@H](O)C=C[C@]2(C)C2CC[C@]3(C)C(=CC(=O)O[C@H]3c3ccoc3)[C@@]21C (some centres undefined)	false (0)
Cc1ccc(-n2cccc2)c(NS(=O)(=O)c2ccc(-c3ccno3)s2)c1	false (0)
NCCCCCCNS(=O)(=O)c1cccc2c(Cl)cccc12	false (0)
CC(=O)O[C@H]1CC[C@@]2(C)C(=CC(=O)C3C4CCC(C(C)CCCC(C)C)[C@@]4(C)CCC32)C1 (some centres undefined)	false (0)
CC(C)CCCC(C)C1CC[C@@]2(C)C3=C(CC[C@]12C)[C@@]1(C)CC[C@H](O)C(C)(C)C1CC3 (some centres undefined)	false (0)
CCC(C)[C@H]1O[C@]2(CC[C@@H]1C)C[C@@H]1C[C@@H](C/C=C(\C)[C@@H](OC3C[C@H](OC)C(O[C@H]4C[C@H](OC)[C@@H](O)[C@H](C)O4)[C@H](C)O3)[C@@H](C)/C=C/C=C3\CO[C@@H]4[C@H](O)C(C)=C[C@@H](C(=O)O1)[C@]34O)O2 (some centres undefined)	false (0)
CC(=O)OC1CCC2(C)C(CC(OC(C)=O)C3(C)C4=CC(=O)OC(c5ccoc5)C4(C)CCC23)C1(C)C (centres undefined)	false (0)
CC(C)CCCC(C)C1CCC2C3CC(=O)[C@H]4C[C@@H](O)CC[C@]4(C)C3CC[C@]12C (some centres undefined)	false (0)
CC(=O)c1cc(CC=C(C)C)c(O)c(CC=C(C)C)c1	false (0)
CSc1n[nH]c(-c2cc(C(C)(C)C)oc2C)c1C#N	false (0)
Clc1ccc(SCc2ccsc2-c2ncns2)cc1	false (0)
CC(C)CCCC(C)C1CCC2C3CC[C@H]4C[C@H](O)CC[C@]4(C)C3CC[C@]12C (some centres undefined)	false (0)
Cc1scc2c1N(C(=O)CN1CCN(C)CC1)c1ccccc1NC2=O	false (0)
C=C(C)C1(O)OC(=O)C=C1OC (centres undefined)	false (0)
CN1CCN(C(=O)OC2c3nccnc3C(=O)N2c2ccc(Cl)cn2)CC1 (centres undefined)	false (0)
Cc1c(C)c(C)c(C(=O)c2ccc(N=Cc3cc(Cl)cc(Cl)c3O)cc2)c(C)c1C	true (1)
